FYI, the data here is from patent US20250197409A1.

So I've got a bunch of compounds here, and I need their DC50 values.
System: androgen receptor (Homo sapiens, UniProt P10275, T878A)
Construct: host or cells: LNCaP.FGC
Sequence (P10275 whole entry T878A): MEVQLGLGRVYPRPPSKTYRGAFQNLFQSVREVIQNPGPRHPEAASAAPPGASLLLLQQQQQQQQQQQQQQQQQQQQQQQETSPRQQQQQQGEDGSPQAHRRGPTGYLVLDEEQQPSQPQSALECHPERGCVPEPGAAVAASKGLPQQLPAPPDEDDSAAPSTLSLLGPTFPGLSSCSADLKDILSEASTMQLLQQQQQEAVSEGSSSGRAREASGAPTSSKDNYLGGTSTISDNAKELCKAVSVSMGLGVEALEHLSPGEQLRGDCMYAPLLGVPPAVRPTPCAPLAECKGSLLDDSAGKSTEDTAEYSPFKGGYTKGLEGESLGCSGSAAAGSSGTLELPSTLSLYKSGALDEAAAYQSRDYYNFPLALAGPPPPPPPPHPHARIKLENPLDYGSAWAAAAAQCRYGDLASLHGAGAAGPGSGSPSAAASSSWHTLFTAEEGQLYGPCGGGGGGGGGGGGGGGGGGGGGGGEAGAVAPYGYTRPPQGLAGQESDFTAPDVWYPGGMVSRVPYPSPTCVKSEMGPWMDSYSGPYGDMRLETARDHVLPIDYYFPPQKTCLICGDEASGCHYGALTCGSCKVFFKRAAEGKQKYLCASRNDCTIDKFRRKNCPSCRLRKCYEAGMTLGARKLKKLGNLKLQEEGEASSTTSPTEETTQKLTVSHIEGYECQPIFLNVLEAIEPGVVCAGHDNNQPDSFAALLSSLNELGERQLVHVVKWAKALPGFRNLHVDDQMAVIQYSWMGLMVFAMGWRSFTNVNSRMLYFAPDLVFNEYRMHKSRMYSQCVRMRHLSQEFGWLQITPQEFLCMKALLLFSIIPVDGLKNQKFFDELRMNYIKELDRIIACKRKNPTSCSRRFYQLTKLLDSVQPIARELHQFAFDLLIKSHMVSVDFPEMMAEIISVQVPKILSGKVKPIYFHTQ
Sequence (Q96SW2 whole entry partner): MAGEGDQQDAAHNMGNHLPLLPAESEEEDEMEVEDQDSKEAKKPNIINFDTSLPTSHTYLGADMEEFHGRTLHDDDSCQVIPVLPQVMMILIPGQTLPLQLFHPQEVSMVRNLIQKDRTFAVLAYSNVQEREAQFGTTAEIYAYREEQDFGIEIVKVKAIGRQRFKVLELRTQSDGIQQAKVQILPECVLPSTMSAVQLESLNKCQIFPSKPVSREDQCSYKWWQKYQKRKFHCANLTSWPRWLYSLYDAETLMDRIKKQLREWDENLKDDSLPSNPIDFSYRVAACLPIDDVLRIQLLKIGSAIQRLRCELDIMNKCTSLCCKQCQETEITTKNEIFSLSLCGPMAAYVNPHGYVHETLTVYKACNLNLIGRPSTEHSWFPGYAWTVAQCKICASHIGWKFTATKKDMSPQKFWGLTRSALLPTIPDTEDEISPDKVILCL
Protocol Summary: Androgen receptor degradation assay using Western blot analysis
Assay type: cell-based
Protocol Conditions: read-out: AR DC50 (concentration needed for 50% AR degradation); LNCaP.FGC cells, serial 10x dilutions from 100 nM

-- ask // lookup DC50 for CCn1c2c(c3ccc(NC(=O)CN4CCN(c5ccc(C(=O)N[C@H]6C(C)(C)[C@H](Oc7ccc(C#N)c(Cl)c7)C6(C)C)cn5)CC4)cc31)C(=O)N(C1CCC(=O)NC1=O)C2=O (some centres unmarked)
-- reply 0.025 to 0.1 µM

-- ask Another compound: CCn1c2c(c3ccc(OC4CCN(CC5CCN(c6ccc(C(=O)N[C@H]7CC[C@H](Oc8ccc(C#N)c(Cl)c8)CC7)nn6)CC5)CC4)cc31)C(=O)N(C1CCC(=O)NC1=O)C2=O (some centres unmarked)
-- reply < 0.01 µM

-- ask Another compound: CCn1c2c(c3ccc(OCCN4CCCN(c5ccc(C(=O)N[C@H]6CC[C@H](N(C)c7ccc(C#N)c(Cl)c7)CC6)nn5)CC4)cc31)C(=O)N(C1CCC(=O)NC1=O)C2=O (some centres unmarked)
-- reply 0.01 to 0.025 µM

-- ask Another compound: CCn1c2c(c3ccc(OCCCN4CC5(CCN(c6ccc(C(=O)N[C@H]7CC[C@H](Oc8ccc(C#N)c(Cl)c8)CC7)nn6)CC5)C4)cc31)C(=O)N(C1CCC(=O)NC1=O)C2=O (some centres unmarked) [Compound 72]
-- reply < 0.01 µM

-- ask Another compound: Cn1c2c(c3ccc(OCCCOC4CC5(CCN(c6ccc(C(=O)N[C@H]7CC[C@H](N(C)c8ccc(C#N)c(Cl)c8)CC7)nn6)C5)C4)cc31)C(=O)N(C1CCC(=O)NC1=O)C2=O (some centres unmarked)
-- reply 0.01 to 0.025 µM

====

System: androgen receptor (Homo sapiens, UniProt P10275, T878A)
Construct: host or cells: LNCaP.FGC
Protocol Summary: Androgen receptor degradation assay using Western blot analysis
Type: cell-based
Protocol Conditions: 24 h, read-out: Androgen Receptor Remaining (%), LNCaP.FGC cells, 100 nM, 24 hr, normalized to GAPDH, untreated cells = 100%
So I've got a bunch of compounds here, and I need their remaining activity at 0.1 µM values.
Report as a plain number; the unit % is understood.

-- ask // lookup remaining activity at 0.1 µM for CCn1c2c(c3ccc(OCCN4CCC5(C4)CN(c4ccc(C(=O)N[C@H]6CC[C@H](Oc7ccc(C#N)c(Cl)c7)CC6)nn4)C5)cc31)C(=O)N(C1CCC(=O)NC1=O)C2=O (some centres unmarked)
-- reply 31

-- ask Another compound: CCn1c2c(c3ccc(OCCCN4CCCN(c5ccc(C(=O)N[C@H]6CC[C@H](Oc7ccc(C#N)c(Cl)c7)CC6)nn5)CC4)cc31)C(=O)N(C1CCC(=O)NC1=O)C2=O (some centres unmarked)
-- reply 20

-- ask Another compound: CCn1c2c(c3ccc(OCCCN4CCN(c5ccc(C(=O)N[C@H]6CC[C@H](Oc7ccc(C#N)c(Cl)c7)CC6)cc5)CC4)cc31)C(=O)N(C1CCC(=O)NC1=O)C2=O (some centres unmarked)
-- reply 107

-- ask Another compound: CCn1c2c(c3ccc(OCCN4CC5(CCN(c6ccc(C(=O)N[C@H]7CC[C@H](Oc8ccc(C#N)c(Cl)c8)CC7)nn6)CC5)C4)cc31)C(=O)N(C1CCC(=O)NC1=O)C2=O (some centres unmarked)
-- reply 22

-- ask Another compound: CCn1c2c(c3ccc(OCC(=O)N4CCN(c5ccc(C(=O)N[C@H]6CC[C@H](N(C)c7ccc(C#N)c(Cl)c7)CC6)nn5)CC4)cc31)C(=O)N(C1CCC(=O)N(CO)C1=O)C2=O (some centres unmarked)
-- reply 57

====

System: androgen receptor (Homo sapiens, UniProt P10275, T878A)
Construct: host or cells: LNCaP.FGC
Protocol Summary: Androgen receptor degradation assay using Western blot analysis
Type: cell-based
Protocol Conditions: read-out: AR DC50 (concentration needed for 50% AR degradation); LNCaP.FGC cells, serial 10x dilutions from 100 nM
Measured Attribute: DC50

-- ask // lookup DC50 for Cn1c2c(c3ccc(OCCOC4CCN(c5ccc(C(=O)N[C@H]6CC[C@H](N(C)c7ccc(C#N)c(Cl)c7)CC6)nn5)CC4)cc31)C(=O)N(C1CCC(=O)NC1=O)C2=O (stereo partly drawn)
-- reply 10 to 25 nM

-- ask Another molecule: CCn1c2c(c3ccc(OCCCN4CC=C(c5ccc(C(=O)N[C@H]6CC[C@H](Oc7ccc(C#N)c(Cl)c7)CC6)nn5)CC4)cc31)C(=O)N(C1CCC(=O)NC1=O)C2=O (stereo partly drawn)
-- reply 10 to 25 nM

-- ask Another molecule: CCn1c2c(c3ccc(OCCCCCN4CCN(c5ccc(C(=O)N[C@H]6CC[C@H](N(C)c7ccc(C#N)c(Cl)c7)CC6)nn5)CC4)cc31)C(=O)N(C1CCC(=O)NC1=O)C2=O (stereo partly drawn)
-- reply 25 to 100 nM

====

System: androgen receptor (Homo sapiens, UniProt P10275, T878A)
Construct: host or cells: LNCaP.FGC
Protocol Summary: Androgen receptor degradation assay using Western blot analysis
Type: cell-based
Protocol Conditions: read-out: AR DC50 (concentration needed for 50% AR degradation); LNCaP.FGC cells, serial 10x dilutions from 100 nM
So I've got a bunch of molecules here, and I need their DC50 values.

-- ask // lookup DC50 for CCn1c2c(c3ccc(OCCN4CCC(c5ccc(C(=O)N[C@H]6CC[C@H](Oc7ccc(C#N)c(Cl)c7)CC6)nn5)CC4)cc31)C(=O)N(C1CCC(=O)NC1=O)C2=O (some centres unmarked)
-- reply 10 to 25 nM

-- ask Another molecule: Cn1c2c(c3ccc(OCCCN4CCC5(CC4)CCN(c4ccc(C(=O)N[C@H]6CC[C@H](N(C)c7ccc(C#N)c(Cl)c7)CC6)nn4)CC5)cc31)C(=O)N(C1CCC(=O)NC1=O)C2=O (some centres unmarked)
-- reply < 10 nM

-- ask Another molecule: CCn1c2c(c3ccc(OCCCCN4C5CCC4CN(c4ccc(C(=O)N[C@H]6CC[C@H](Oc7ccc(C#N)c(Cl)c7)CC6)nn4)C5)cc31)C(=O)N(C1CCC(=O)NC1=O)C2=O (some centres unmarked)
-- reply 25 to 100 nM

-- ask Another molecule: CCn1c2c(c3ccc(OCCN4CC5(CCN(c6ccc(C(=O)N[C@H]7CC[C@H](Oc8ccc(C#N)c(Cl)c8)CC7)nn6)CC5)C4)cc31)C(=O)N(C1CCC(=O)NC1=O)C2=O (some centres unmarked)
-- reply 10 to 25 nM

-- ask Another molecule: CCn1c2c(c3ccc(OCCN4CCC(C5CCN(c6ccc(C(=O)N[C@H]7CC[C@H](Oc8ccc(C#N)c(Cl)c8)CC7)nn6)CC5)CC4)cc31)C(=O)N(C1CCC(=O)NC1=O)C2=O (some centres unmarked)
-- reply 10 to 25 nM

====

So I've got a bunch of compounds here, and I need their Androgen Receptor Remaining (%) values.
System: androgen receptor (Homo sapiens, UniProt P10275, T878A)
Construct: host or cells: LNCaP.FGC
Protocol Summary: Androgen receptor degradation assay using Western blot analysis
Type: cell-based
Protocol Conditions: LNCaP.FGC cells, 100 nM, 24 hr, normalized to GAPDH, untreated cells = 100%
Report as a plain number; the unit % is understood.

-- ask // lookup Androgen Receptor Remaining (%) for CC1(C)[C@H](NC(=O)c2ccc(N3CCN(CCOc4ccc5c6c(sc5c4)C(=O)N(C4CCC(=O)NC4=O)C6=O)CC3)cn2)C(C)(C)[C@H]1Oc1ccc(C#N)c(Cl)c1 (some centres unmarked) [Compound 18]
-- reply 99

-- ask Another compound: CCn1c2c(c3ccc(OCCCN4CC5(CCN(c6ccc(C(=O)N[C@H]7CC[C@H](Oc8ccc(C#N)c(Cl)c8)CC7)nn6)CC5)C4)cc31)C(=O)N(C1CCC(=O)NC1=O)C2=O (some centres unmarked) [Compound 96]
-- reply 1

-- ask Another compound: CCn1c2c(c3ccc(OCCCN4CC5(CCN(c6ccc(C(=O)N[C@H]7CC[C@H](Oc8ccc(C#N)c(Cl)c8)CC7)nn6)CC5)C4)cc31)C(=O)N(C1CCC(=O)NC1=O)C2=O (some centres unmarked) [Compound 72]
-- reply 26

-- ask Another compound: CCn1c2c(c3ccc(OCCOCCN4CCN(c5ccc(C(=O)N[C@H]6CC[C@H](Oc7ccc(C#N)c(Cl)c7)CC6)nn5)CC4)cc31)C(=O)N(C1CCC(=O)NC1=O)C2=O (some centres unmarked)
-- reply 26

-- ask Another compound: CC1(C)[C@H](NC(=O)c2ccc(N3CCN(CCOc4ccc5c6c(sc5c4)C(=O)N(C4CCC(=O)NC4=O)C6=O)CC3)cn2)C(C)(C)[C@H]1Oc1ccc(C#N)c(Cl)c1 (some centres unmarked) [Compound 7]
-- reply 45
